B1: C9orf9 (parent)
chain: LTKASLKPRGCSKPPWRPPGGKL

- Variants of: B1
- PROTOCOL TEXT: protein stability index of a GFP-peptide fusion (GPS, HEK-293T) (PSI 1-6); higher = more stable;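 also: lentivirally expressed fusions sorted by FACS into six bins by GFP to DsRed ratio, PSI derived from sequencing read proportions per bin multiplied by bin number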
- CONDITION PARAMETERS: c terminus: native
Rule: protein stability index of 2 or more gives yes (1); anything lower gives no (0).

{"columns": ["VARIANT NOTATION", "ASSIGNED CATEGORY"],
 "data": [
  ["L6T", "no (0)"],
  ["P8M", "yes (1)"],
  ["L23P", "yes (1)"],
  ["L23W", "no (0)"],
  ["P14W", "no (0)"],
  ["A4K", "no (0)"],
  ["P18R", "yes (1)"],
  ["P18I", "yes (1)"],
  ["S12C", "no (0)"],
  ["K22M", "yes (1)"],
  ["T2K", "yes (1)"],
  ["K13I", "yes (1)"],
  ["P19F", "no (0)"],
  ["G20F", "yes (1)"],
  ["K13G", "yes (1)"],
  ["C11I", "yes (1)"],
  ["C11Y", "no (0)"],
  ["T2G", "no (0)"],
  ["C11H", "yes (1)"],
  ["T2R", "no (0)"],
  ["W16I", "no (0)"],
  ["G20H", "yes (1)"],
  ["T2P", "yes (1)"],
  ["K22Y", "yes (1)"],
  ["G20N", "yes (1)"],
  ["K3A", "no (0)"],
  ["R17A", "yes (1)"],
  ["A4C", "no (0)"],
  ["G10P", "yes (1)"],
  ["S12F", "no (0)"],
  ["K7M", "yes (1)"],
  ["L23R", "yes (1)"],
  ["S12H", "no (0)"],
  ["G10T", "yes (1)"],
  ["R17L", "yes (1)"],
  ["L1Y", "yes (1)"],
  ["P8L", "yes (1)"],
  ["L1V", "no (0)"],
  ["C11M", "no (0)"],
  ["G10Q", "no (0)"],
  ["K22Q", "yes (1)"],
  ["S5I", "yes (1)"],
  ["S5L", "yes (1)"]
]}
